# RVFV L protein (Rift valley fever virus): IC50 values follow
# Sequence (P27316 whole entry, looked up): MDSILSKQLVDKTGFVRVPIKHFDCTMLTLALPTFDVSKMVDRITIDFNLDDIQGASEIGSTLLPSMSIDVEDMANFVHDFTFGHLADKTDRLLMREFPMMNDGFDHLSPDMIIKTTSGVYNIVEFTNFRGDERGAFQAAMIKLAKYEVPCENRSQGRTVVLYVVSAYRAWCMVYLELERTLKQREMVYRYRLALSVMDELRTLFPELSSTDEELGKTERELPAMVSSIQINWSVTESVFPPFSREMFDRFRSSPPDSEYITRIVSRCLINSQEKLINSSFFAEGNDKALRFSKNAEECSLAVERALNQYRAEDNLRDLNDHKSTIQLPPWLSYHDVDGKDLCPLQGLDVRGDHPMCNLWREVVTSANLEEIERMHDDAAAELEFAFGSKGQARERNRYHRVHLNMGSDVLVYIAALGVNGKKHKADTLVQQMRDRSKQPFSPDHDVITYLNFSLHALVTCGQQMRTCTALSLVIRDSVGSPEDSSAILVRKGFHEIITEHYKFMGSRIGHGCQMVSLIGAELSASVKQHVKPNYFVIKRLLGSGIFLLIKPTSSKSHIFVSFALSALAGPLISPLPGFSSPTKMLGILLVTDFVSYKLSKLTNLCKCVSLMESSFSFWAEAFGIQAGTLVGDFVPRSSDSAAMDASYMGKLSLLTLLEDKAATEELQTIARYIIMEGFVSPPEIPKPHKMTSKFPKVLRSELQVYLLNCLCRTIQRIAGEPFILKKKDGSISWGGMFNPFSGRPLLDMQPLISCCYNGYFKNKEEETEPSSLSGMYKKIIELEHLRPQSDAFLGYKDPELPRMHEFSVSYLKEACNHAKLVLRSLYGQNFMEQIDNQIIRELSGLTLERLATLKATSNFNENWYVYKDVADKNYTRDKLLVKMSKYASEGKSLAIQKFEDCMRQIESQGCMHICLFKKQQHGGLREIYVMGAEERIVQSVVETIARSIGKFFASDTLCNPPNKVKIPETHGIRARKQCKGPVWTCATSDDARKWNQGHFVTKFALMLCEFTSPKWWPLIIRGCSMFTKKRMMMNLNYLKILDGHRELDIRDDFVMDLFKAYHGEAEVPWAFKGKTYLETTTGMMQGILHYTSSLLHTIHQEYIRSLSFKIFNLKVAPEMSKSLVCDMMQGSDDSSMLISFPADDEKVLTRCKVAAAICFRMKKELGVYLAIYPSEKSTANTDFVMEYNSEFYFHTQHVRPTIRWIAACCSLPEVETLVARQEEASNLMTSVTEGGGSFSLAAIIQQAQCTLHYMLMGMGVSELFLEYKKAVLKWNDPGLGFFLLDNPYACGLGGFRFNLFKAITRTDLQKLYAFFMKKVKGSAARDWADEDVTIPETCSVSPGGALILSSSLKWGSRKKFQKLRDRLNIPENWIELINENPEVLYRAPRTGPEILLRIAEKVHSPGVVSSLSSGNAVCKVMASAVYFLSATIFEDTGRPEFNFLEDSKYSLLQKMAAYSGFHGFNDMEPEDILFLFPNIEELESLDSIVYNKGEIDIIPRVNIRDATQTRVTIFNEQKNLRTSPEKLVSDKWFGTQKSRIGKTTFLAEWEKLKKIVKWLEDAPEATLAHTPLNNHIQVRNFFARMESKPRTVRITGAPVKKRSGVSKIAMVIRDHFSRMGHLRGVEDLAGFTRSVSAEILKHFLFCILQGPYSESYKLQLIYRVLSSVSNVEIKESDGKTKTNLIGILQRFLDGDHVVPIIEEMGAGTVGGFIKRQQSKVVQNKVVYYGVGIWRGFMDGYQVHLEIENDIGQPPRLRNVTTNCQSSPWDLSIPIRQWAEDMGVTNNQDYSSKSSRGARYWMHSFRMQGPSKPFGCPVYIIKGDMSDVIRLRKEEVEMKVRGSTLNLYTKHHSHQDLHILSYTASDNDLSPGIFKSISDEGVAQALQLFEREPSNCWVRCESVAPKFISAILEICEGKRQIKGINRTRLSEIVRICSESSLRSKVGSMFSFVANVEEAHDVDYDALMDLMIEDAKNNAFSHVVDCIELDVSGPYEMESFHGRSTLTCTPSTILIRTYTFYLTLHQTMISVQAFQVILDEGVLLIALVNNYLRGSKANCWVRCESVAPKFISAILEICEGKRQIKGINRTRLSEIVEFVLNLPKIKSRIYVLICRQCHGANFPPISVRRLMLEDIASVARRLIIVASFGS
quantity: IC50 (µM)

# molecular string, result
records = [
    ("Nc1ccn([C@@H]2O[C@H](CO)[C@@H](O)[C@H]2F)c(=O)n1", 5.9),
    ("O=c1nc(NO)ccn1[C@@H]1O[C@H](CO)[C@@H](O)[C@H]1O", 1.6),
]
